- Measurement Target: rat GABA A receptor α2β3γ2 (Rattus norvegicus, UniProt P18508+P23576)
- Construct: expressed in transfected cells; host or cells: SF9 insect cells
- Procedure Summary: [3H]flumazenil competition binding, GABA A α2β3γ2
- Test Settings: [3H]flumazenil 1 nM, SF9 cells expressing rat α2β3γ2, mean of two determinations; read-out: Ki[nM] ra2
Value Type: Ki (nM)
Answer with a number only, understood to be in nM.

1. CCOC(=O)c1ncn2c1Cn1c(Cc3c[nH]c4ccccc34)nnc1-c1cc(Br)ccc1-2
225
2. CCOC(=O)c1ncn2c1Cn1c(Cc3ccncc3)nnc1-c1cc(Cl)ccc1-2
308
3. CCOC(=O)c1ncn2c1Cn1c(Cc3ccc(-c4ccccc4)cc3)nnc1-c1cc(OC)ccc1-2
148
4. CCOC(=O)c1ncn2c1Cn1c(Cc3cccc(OC)c3)nnc1-c1cc(Br)ccc1-2
409
5. Cc1ccc2c(c1)-c1nncn1Cc1c(-c3nc(C4CC4)no3)ncn1-2
362
6. CCOC(=O)c1ncn2c1Cn1c(Cc3c[nH]c4c(OC)cccc34)nnc1-c1cc(OC)ccc1-2
266

Okay, next one:
Would you mind telling me what Ki value was observed for `CCOC(=O)c1ncn2c1Cn1c(CO)nnc1-c1cc(OC)ccc1-2` ?
123

----------
- Measurement Target: rat GABA A receptor α5β3γ2 (Rattus norvegicus, UniProt P18508+P19969)
- Construct: expressed in transfected cells; host or cells: SF9 insect cells
- Procedure Summary: [3H]flumazenil competition binding, GABA A α5β3γ2
- Test Settings: [3H]flumazenil 0.5 nM, SF9 cells expressing rat α5β3γ2, mean of two determinations; read-out: Ki[nM] ra5
Item-by-item account of Ki
Answer with a number only, understood to be in nM.

Some solved entries appear below for comparison.
1) CCOC(=O)c1ncn2c1Cn1c(C)nnc1-c1cc(OC)ccc1-2
14.5
2) CCOC(=O)c1ncn2c1Cn1cnnc1-c1cc(OC)ccc1-2
1.3
3) Clc1ccc2c(c1)-c1nnc(Cc3ccccc3)n1Cc1c(-c3noc(C4CC4)n3)ncn1-2
0.6
4) CCOC(=O)c1ncn2c1Cn1c(Cc3c[nH]c4c(OC)cccc34)nnc1-c1cc(OC)ccc1-2
8.2

Okay, next one:
Would you mind telling me what Ki value was observed for `CCOC(=O)c1ncn2c1Cn1cnnc1-c1cc(Cl)ccc1-2` ?
1.2

----------
Item-by-item account of pKi
- Measurement Target: rat GABA A receptor α2β3γ2 (Rattus norvegicus, UniProt P18508+P23576)
- Construct: expressed in transfected cells; host or cells: SF9 insect cells
- Procedure Summary: [3H]flumazenil competition binding, GABA A α2β3γ2
For clarity, pKi is expressed as the negative log10 of concentration in mol/L.

Some solved entries appear below for comparison.
1) CCOC(=O)c1ncn2c1Cn1cnnc1-c1cc(OC)ccc1-2
7.24
2) Clc1ccc2c(c1)-c1nnc(Cc3ccccc3)n1Cc1c(-c3noc(C4CC4)n3)ncn1-2
7.97
3) CCOC(=O)c1ncn2c1Cn1cnnc1-c1cc(Cl)ccc1-2
7.26

Okay, next one:
Would you mind telling me what pKi value was observed for `CCOC(=O)c1ncn2c1Cn1c(C)nnc1-c1cc(OC)ccc1-2` ?
6.30

----------
Value Type: melting point

Some solved entries appear below for comparison.
1) CCOC(=O)c1ncn2c1Cn1c(Cc3c[nH]c4ccccc34)nnc1-c1cc(Br)ccc1-2 [Example 47]
258 °C (dec.)
2) CCOC(=O)c1ncn2c1Cn1cnnc1-c1cc(Cl)ccc1-2 [Example 13]
226 to 227 °C
3) Cc1ccc2c(c1)-c1nncn1Cc1c(-c3nc(C4CC4)no3)ncn1-2 [Example 6]
253 to 256 °C

Okay, next one:
Would you mind telling me what melting point value was observed for CCOC(=O)c1ncn2c1Cn1c(Cc3cccc(OC)c3)nnc1-c1cc(Br)ccc1-2 [Example 50] ?
111 to 113 °C
